# target.entity: β3-adrenoceptor (β3-AR) (Mus musculus, UniProt P25962)
# Sequence (P25962 whole entry): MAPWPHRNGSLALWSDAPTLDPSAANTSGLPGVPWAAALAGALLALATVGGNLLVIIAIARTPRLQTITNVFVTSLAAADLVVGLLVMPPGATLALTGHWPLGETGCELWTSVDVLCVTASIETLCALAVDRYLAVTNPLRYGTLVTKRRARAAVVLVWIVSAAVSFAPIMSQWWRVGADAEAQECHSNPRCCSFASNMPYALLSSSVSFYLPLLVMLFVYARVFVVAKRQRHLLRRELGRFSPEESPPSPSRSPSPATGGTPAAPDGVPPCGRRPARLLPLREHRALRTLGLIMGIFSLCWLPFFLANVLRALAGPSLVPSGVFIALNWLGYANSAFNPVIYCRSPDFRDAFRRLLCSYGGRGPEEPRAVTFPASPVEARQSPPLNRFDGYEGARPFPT
# measurement.protocol: Epac1-camps FRET cAMP concentration-response in mature murine brown adipocytes
endpoint: pEC50
Recall that pEC50 is obtained by taking minus log10 of the concentration measured in molar.

Can you look up the measured pEC50 of C[C@H](Cc1ccc2c(c1)OC(C(=O)O)(C(=O)O)O2)NC[C@H](O)c1cccc(Cl)c1 [CL, CL 316,243] for me?
5.11

Recorded values, source paper PMC7191645.
